The reported numbers originate from the RNAGym collection of RNA variant scans (doi:10.1093/molbev/msab373).

Listed here are variants together with their documented reverse-splicing fitness.
B1: Azoarcus group I ribozyme (parent)
chain: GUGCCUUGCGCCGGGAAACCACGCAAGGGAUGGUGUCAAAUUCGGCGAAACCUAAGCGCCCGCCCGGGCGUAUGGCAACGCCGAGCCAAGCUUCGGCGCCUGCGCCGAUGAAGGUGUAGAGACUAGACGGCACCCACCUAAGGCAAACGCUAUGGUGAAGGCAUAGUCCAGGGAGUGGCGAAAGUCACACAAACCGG

variants of: B1; test: reverse-splicing fitness (ratio to wild type); higher = more active; in vitro selection; Mg2+ level not given
Number, no unit, nothing else.

- Sequence variant: "C82U A111U A145C"
  reverse-splicing fitness: 0.295
- Sequence variant: "C82A A111C A120U A145U C150U C169U"
  reverse-splicing fitness: 0.00409
- Sequence variant: "C82G A111C A120C A145G C150G C169A"
  reverse-splicing fitness: 0.00885

Lab note: next variant to report on.
For record C82U A111C A120U A145C C150U C169A U176C the listed reverse-splicing fitness is 0.0025
